# Measurement protocol: Blood sampling for THC and CBD plasma concentration after single oral dosing
# Test conditions: dog, plasma, oral, THC level in blood plasma fraction, individual dogs 1-4; 0.24 mg/kg THC + 0.12 mg/kg CBD oral once; 1.5 h
Readout name: concentration at 1.5 h (ng/mL)
Answer with a number only, understood to be in ng/mL.

Need concentration at 1.5 h, item CCCCCc1cc(O)c2c(c1)OC(C)(C)[C@@H]1CCC(C)=C[C@@H]21 [THC, Δ^9-Tetrahydrocannabinol]
30.1

----------
# Measurement protocol: Blood sampling for THC and CBD plasma concentration after single oral dosing
# Test conditions: dog, plasma, oral, CBD concentration in blood plasma, mean of dogs 1-4; 0.12 mg/kg CBD + 0.24 mg/kg THC oral once; 2 h
Readout name: concentration at 2 h (ng/mL)
Answer with a number only, understood to be in ng/mL.

Need concentration at 2 h, item C=C(C)[C@@H]1CCC(C)=C[C@H]1c1c(O)cc(CCCCC)cc1O [CBD, Cannabidiol]
6.89

----------
# Measurement protocol: Blood sampling for THC and CBD plasma concentration after single oral dosing
# Test conditions: dog, plasma, oral, THC level in blood plasma fraction, individual dogs 5-8; 0.12 mg/kg THC + 0.24 mg/kg CBD oral once; 3 h
# Procedure: Two compositions, IVP1 and IVP2, were administered in varying amounts in the study. Dosage volumes were calculated prior to Day 0, to provide the target dosage in mg/kg bodyweight based on actual dog bodyweights and IVP active ingredient composition based on the Certificates of Analysis. Blood samples of approximately 5 mL were collected at each drug concentration sampling time-point from each animal using 22-gauge needles and 5 mL syringes. […]
Readout name: concentration at 3 h (ng/mL)
Answer with a number only, understood to be in ng/mL.

Need concentration at 3 h, item CCCCCc1cc(O)c2c(c1)OC(C)(C)[C@@H]1CCC(C)=C[C@@H]21 [THC, Δ^9-Tetrahydrocannabinol]
8.19

----------
# Measurement protocol: Blood sampling for THC and CBD plasma concentration after single oral dosing
# Test conditions: dog, plasma, oral, THC level in blood plasma fraction, individual dogs 5-8; 0.12 mg/kg THC + 0.24 mg/kg CBD oral once; 12 h
Readout name: concentration at 12 h (ng/mL)
Answer with a number only, understood to be in ng/mL.

Need concentration at 12 h, item CCCCCc1cc(O)c2c(c1)OC(C)(C)[C@@H]1CCC(C)=C[C@@H]21 [THC, Δ^9-Tetrahydrocannabinol]
0.56

----------
# Measurement protocol: Blood sampling for THC and CBD plasma concentration after single oral dosing
# Test conditions: dog, plasma, oral, CBD concentration in blood plasma, mean of dogs 5-8; 0.24 mg/kg CBD + 0.12 mg/kg THC oral once; 1.5 h
Readout name: concentration at 1.5 h (ng/mL)
Answer with a number only, understood to be in ng/mL.

Need concentration at 1.5 h, item C=C(C)[C@@H]1CCC(C)=C[C@H]1c1c(O)cc(CCCCC)cc1O [CBD, Cannabidiol]
26.9

----------
# Measurement protocol: Blood sampling for THC and CBD plasma concentration after single oral dosing
# Test conditions: dog, plasma, oral, CBD concentration in blood plasma, mean of dogs 5-8; 0.24 mg/kg CBD + 0.12 mg/kg THC oral once; 4 h
# Protocol: Two compositions, IVP1 and IVP2, were administered in varying amounts in the study. Dosage volumes were calculated prior to Day 0, to provide the target dosage in mg/kg bodyweight based on actual dog bodyweights and IVP active ingredient composition based on the Certificates of Analysis. Blood samples of approximately 5 mL were collected at each drug concentration sampling time-point from each animal using 22-gauge needles and 5 mL syringes. […]
Readout name: concentration at 4 h (ng/mL)
Answer with a number only, understood to be in ng/mL.

Need concentration at 4 h, item C=C(C)[C@@H]1CCC(C)=C[C@H]1c1c(O)cc(CCCCC)cc1O
4.53

----------
# Measurement protocol: Blood sampling for THC and CBD plasma concentration after single oral dosing
# Test conditions: dog, plasma, oral, THC level in blood plasma fraction, mean of dogs 5-8; 0.12 mg/kg THC + 0.24 mg/kg CBD oral once; 8 h
Readout name: concentration at 8 h (ng/mL)
Answer with a number only, understood to be in ng/mL.

Need concentration at 8 h, item CCCCCc1cc(O)c2c(c1)OC(C)(C)[C@@H]1CCC(C)=C[C@@H]21 [THC, Δ^9-Tetrahydrocannabinol]
2.38

----------
# Measurement protocol: Blood sampling for THC and CBD plasma concentration after single oral dosing
# Test conditions: dog, plasma, oral, CBD concentration in blood plasma, individual dogs 5-8; 0.24 mg/kg CBD + 0.12 mg/kg THC oral once; 32 h
Readout name: concentration at 32 h (ng/mL)
Answer with a number only, understood to be in ng/mL.

Need concentration at 32 h, item C=C(C)[C@@H]1CCC(C)=C[C@H]1c1c(O)cc(CCCCC)cc1O
0.28

----------
# Measurement protocol: Blood sampling for THC and CBD plasma concentration after single oral dosing
# Test conditions: dog, plasma, oral, CBD concentration in blood plasma, mean of dogs 5-8; 0.24 mg/kg CBD + 0.12 mg/kg THC oral once; 24 h
Readout name: concentration at 24 h (ng/mL)
Answer with a number only, understood to be in ng/mL.

Need concentration at 24 h, item C=C(C)[C@@H]1CCC(C)=C[C@H]1c1c(O)cc(CCCCC)cc1O
0.35

----------
# Measurement protocol: Blood sampling for THC and CBD plasma concentration after single oral dosing
# Test conditions: dog, plasma, oral, CBD concentration in blood plasma, mean of dogs 5-8; 0.24 mg/kg CBD + 0.12 mg/kg THC oral once; 0.67 h
Readout name: concentration at 0.67 h (ng/mL)
Answer with a number only, understood to be in ng/mL.

Need concentration at 0.67 h, item C=C(C)[C@@H]1CCC(C)=C[C@H]1c1c(O)cc(CCCCC)cc1O
30.1

----------
# Measurement protocol: Blood sampling for THC and CBD plasma concentration after single oral dosing
# Test conditions: dog, plasma, oral, THC level in blood plasma fraction, mean of dogs 5-8; 0.12 mg/kg THC + 0.24 mg/kg CBD oral once; 16 h
Readout name: concentration at 16 h (ng/mL)
Answer with a number only, understood to be in ng/mL.

Need concentration at 16 h, item CCCCCc1cc(O)c2c(c1)OC(C)(C)[C@@H]1CCC(C)=C[C@@H]21 [THC, Δ^9-Tetrahydrocannabinol]
0.44

----------
# Measurement protocol: Blood sampling for THC and CBD plasma concentration after single oral dosing
# Test conditions: dog, plasma, oral, CBD concentration in blood plasma, mean of dogs 1-4; 0.12 mg/kg CBD + 0.24 mg/kg THC oral once; 3 h
Readout name: concentration at 3 h

Need concentration at 3 h, item C=C(C)[C@@H]1CCC(C)=C[C@H]1c1c(O)cc(CCCCC)cc1O
4.31 ng/mL

----------
# Measurement protocol: Blood sampling for THC and CBD plasma concentration after single oral dosing
# Test conditions: dog, plasma, oral, CBD concentration in blood plasma, individual dogs 5-8; 0.24 mg/kg CBD + 0.12 mg/kg THC oral once; 12 h
Readout name: concentration at 12 h (ng/mL)
Answer with a number only, understood to be in ng/mL.

Need concentration at 12 h, item C=C(C)[C@@H]1CCC(C)=C[C@H]1c1c(O)cc(CCCCC)cc1O
0.88

----------
# Measurement protocol: Blood sampling for THC and CBD plasma concentration after single oral dosing
# Test conditions: dog, plasma, oral, THC level in blood plasma fraction, mean of dogs 5-8; 0.12 mg/kg THC + 0.24 mg/kg CBD oral once; 32 h
Readout name: concentration at 32 h (ng/mL)
Answer with a number only, understood to be in ng/mL.

Need concentration at 32 h, item CCCCCc1cc(O)c2c(c1)OC(C)(C)[C@@H]1CCC(C)=C[C@@H]21 [THC, Δ^9-Tetrahydrocannabinol]
0.28

----------
# Measurement protocol: Blood sampling for THC and CBD plasma concentration after single oral dosing
# Test conditions: dog, plasma, oral, THC level in blood plasma fraction, individual dogs 5-8; 0.12 mg/kg THC + 0.24 mg/kg CBD oral once; 16 h
Readout name: concentration at 16 h
Kindly format the answer as number then unit.

Need concentration at 16 h, item CCCCCc1cc(O)c2c(c1)OC(C)(C)[C@@H]1CCC(C)=C[C@@H]21 [THC, Δ^9-Tetrahydrocannabinol]
0.34 ng/mL

----------
# Measurement protocol: Blood sampling for THC and CBD plasma concentration after single oral dosing
# Test conditions: dog, plasma, po
# Protocol: Two compositions, IVP1 and IVP2, were administered in varying amounts in the study. Dosage volumes were calculated prior to Day 0, to provide the target dosage in mg/kg bodyweight based on actual dog bodyweights and IVP active ingredient composition based on the Certificates of Analysis. Blood samples of approximately 5 mL were collected at each drug concentration sampling time-point from each animal using 22-gauge needles and 5 mL syringes. […]
Readout name: AUC(0-inf) (ng·h/mL)
Answer with a number only, understood to be in ng·h/mL.

Need AUC(0-inf), item CCCCCc1cc(O)c2c(c1)OC(C)(C)[C@@H]1CCC(C)=C[C@@H]21 [THC, Δ^9-Tetrahydrocannabinol]
0.6
